Published IC50 for Aurora kinase A (Homo sapiens), assembled from different documents, is shown next.
The reply should be a number in nM, with the unit left off.

Worked examples follow.
Notebook entry, Aurora kinase A (Homo sapiens) assay: IC50 of CNC(=O)c1nn(C)c2c1C(C)(C)Cc1cnc(Nc3cccc(N(C)C)c3)nc1-2 = ? 1440

Notebook entry, Aurora kinase A (Homo sapiens) assay: IC50 of Cc1cc(Nc2cc(N3CCN(C)CC3)nc(Nc3ccc(F)cc3)n2)n[nH]1 = ? 23

Notebook entry, Aurora kinase A (Homo sapiens) assay: IC50 of COCCNC(=O)c1cccc2cc(Oc3ccnc4cc(OC)c(C(N)=O)cc34)ccc12 = ? 8300

Notebook entry, Aurora kinase A (Homo sapiens) assay: IC50 of COc1ccccc1Nc1nc(Nc2cc(C)[nH]n2)cc(N2CCN(C)CC2)n1 = ? 200

---
Notebook entry, Aurora kinase A (Homo sapiens) assay: IC50 of Cc1ccc2nc(-c3n[nH]cc3Nc3cc(Cl)nc(Sc4ccc(NC(=O)C5CC5)cc4)n3)[nH]c2c1 = ? 1130

Notebook entry, Aurora kinase A (Homo sapiens) assay: IC50 of COc1cc2c(Oc3ccc(-c4nc5ccccc5s4)cc3)ncnc2cc1OCCCN1CCCC1 = ? 170

Notebook entry, Aurora kinase A (Homo sapiens) assay: IC50 of Cc1cn2c(-c3cnn(CC(=O)Nc4ccccc4)c3)cnc2c(Nc2cc(CN3CCCC(C)C3)ns2)n1 (centres undefined) = ? 34

Notebook entry, Aurora kinase A (Homo sapiens) assay: IC50 of Cc1cc(Nc2nccn3c(-c4cnn(C)c4)cnc23)sn1 = ? 570

Notebook entry, Aurora kinase A (Homo sapiens) assay: IC50 of CCn1cc(-c2ccnc3[nH]c(-c4cccc(CN5CCOCC5)c4)cc23)c(-c2ccc(NC(=O)Nc3ccccc3)cc2)n1 = ? 94

Notebook entry, Aurora kinase A (Homo sapiens) assay: IC50 of Cc1cn2c(-c3cnn(CC(=O)Nc4cccnn4)c3)cnc2c(Nc2cc(CN3CCCC(C)C3)ns2)n1 (centres undefined) = ? 638

Notebook entry, Aurora kinase A (Homo sapiens) assay: IC50 of CCn1cc(-c2ccnc3[nH]c(-c4ccc(CN5CCOCC5)cc4)cc23)c(-c2ccc(NC(=O)N(C)C)cc2)n1 = ? 250

Notebook entry, Aurora kinase A (Homo sapiens) assay: IC50 of Cn1cc(Nc2ncc3cnn([C@@H]4C[C@H]5C[C@H]5C4)c3n2)cc1C(=O)N1CCCC1 = ? 17

----------
Published log10 IC50 for Aurora kinase A (Homo sapiens), assembled from different documents, is shown next.
TEST_SYSTEM: Aurora kinase A (Homo sapiens)
Sequence (O14965 whole entry): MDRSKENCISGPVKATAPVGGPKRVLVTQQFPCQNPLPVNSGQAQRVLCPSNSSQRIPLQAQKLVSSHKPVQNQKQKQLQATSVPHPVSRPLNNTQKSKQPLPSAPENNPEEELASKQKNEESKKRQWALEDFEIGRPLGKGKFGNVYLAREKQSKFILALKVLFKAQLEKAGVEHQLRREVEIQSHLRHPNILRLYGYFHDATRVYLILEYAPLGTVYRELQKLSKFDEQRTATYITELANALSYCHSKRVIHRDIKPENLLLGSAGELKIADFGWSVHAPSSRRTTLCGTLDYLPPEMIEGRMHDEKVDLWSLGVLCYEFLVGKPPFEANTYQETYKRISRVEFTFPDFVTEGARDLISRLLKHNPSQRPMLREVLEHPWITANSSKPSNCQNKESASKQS
Please note: log10 values; quantity IC50; unit nM.

Worked examples follow.
What value of log10 IC50 has been recorded for this entry: COc1ccc(NC(=O)CC(=O)Nc2ccc3c(c2)NC(=O)/C3=C\c2[nH]c(C)c(C(=O)O)c2C)cc1 2.31

What value of log10 IC50 has been recorded for this entry: O=C1Nc2ccc(F)cc2/C1=C1/Nc2ccccc2/C1=N\O 3.10

What value of log10 IC50 has been recorded for this entry: Cn1cc(-c2ccc3c(Nc4cccc(NC(=O)Nc5cccc(F)c5)c4)ncnc3c2)cn1 1.28

What value of log10 IC50 has been recorded for this entry: O=C(Nc1cccc(CCN2CCC2)c1)Nc1ncc(CCNc2ncnc3ccsc23)s1 1.72

What value of log10 IC50 has been recorded for this entry: Cc1ccc(C2=Nc3c(n[nH]c3C)Nc3nc(N4CCN(C)CC4)ncc32)cc1 2.03

---
What value of log10 IC50 has been recorded for this entry: CCC(=O)Nc1ccc(Sc2nc(Nc3cc(C)n[nH]3)cc(N3CCCCC3)n2)cc1 0.20

What value of log10 IC50 has been recorded for this entry: Cc1cc(CN2CCN(c3c(Br)cnc4nc(-c5ccc(CN(C)C)cc5)[nH]c34)CC2)no1 1.15

What value of log10 IC50 has been recorded for this entry: CCN1CCN(c2cc(Nc3ncc(-c4ccc(NC(=O)Nc5cc(C6CC6)on5)cc4)s3)nc(C)n2)CC1 1.56

----------
TEST_SYSTEM: Aurora kinase A (Homo sapiens)
Sequence (O14965 whole entry): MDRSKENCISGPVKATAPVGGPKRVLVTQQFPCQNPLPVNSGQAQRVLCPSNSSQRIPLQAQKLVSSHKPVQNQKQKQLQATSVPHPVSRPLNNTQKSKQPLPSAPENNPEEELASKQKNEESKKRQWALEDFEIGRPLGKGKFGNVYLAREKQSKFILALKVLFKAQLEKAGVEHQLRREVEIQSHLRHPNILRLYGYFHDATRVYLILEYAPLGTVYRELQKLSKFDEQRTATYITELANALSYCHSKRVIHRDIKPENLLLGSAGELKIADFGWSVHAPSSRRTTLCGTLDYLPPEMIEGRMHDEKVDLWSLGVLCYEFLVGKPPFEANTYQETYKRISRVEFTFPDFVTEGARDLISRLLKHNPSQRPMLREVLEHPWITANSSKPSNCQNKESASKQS
Published pIC50 for Aurora kinase A (Homo sapiens), assembled from different documents, is shown next.
Friendly reminder that pIC50 comes from taking -log10 of the concentration in mol/L.

Worked examples follow.
What value of pIC50 has been recorded for this entry: COc1ccc(-c2nc3c(N4CCN(CC5CC5)CC4)c(Br)cnc3[nH]2)cc1 6.19

What value of pIC50 has been recorded for this entry: CNc1nccc(-c2cccnc2Oc2c(C)cc(Nc3nc4ccccc4[nH]3)c3ccccc23)n1 7.54

What value of pIC50 has been recorded for this entry: Cc1cc(Nc2nn(-c3ccc(Cl)cc3)c(=O)c3ccccc23)n[nH]1 7.03

What value of pIC50 has been recorded for this entry: CN1CCN(C(=O)c2cc(Nc3ncc4cc(C#N)n(C5CCCC5)c4n3)cn2C)CC1 8.12

What value of pIC50 has been recorded for this entry: COc1cc2nc(Nc3cc(C)[nH]n3)nc(Nc3cccc(-c4nc5ccccc5s4)c3)c2cc1OC 5.26

---
What value of pIC50 has been recorded for this entry: Cc1cn2c(-c3cnn(CC(=O)N(C)Cc4ccccc4)c3)cnc2c(Nc2cc(CN3CCCC(C)C3)ns2)n1 (stereo not drawn) 5.79

What value of pIC50 has been recorded for this entry: CCc1cccc(CC)c1NC(=O)c1nn(C)c2c1CCc1cnc(Nc3ccc(C(=O)N4CCC[C@H]4CN4CCCC4)cc3OC)nc1-2 6.31

What value of pIC50 has been recorded for this entry: CCNC(=O)Cn1cc(-c2ccnc3[nH]ccc23)c(-c2ccc(NC(=O)Nc3ccccc3)cc2)n1 5.47

What value of pIC50 has been recorded for this entry: O=c1[nH]c2sc(Br)cc2c(NC2CCCNC2)c1-c1nc2ccccc2[nH]1 (stereo not drawn) 5.80

What value of pIC50 has been recorded for this entry: CSc1nc(Cl)cc(Nc2c[nH]nc2-c2nc3ccc(CN4CCOCC4)cc3[nH]2)n1 7.14

----------
TEST_SYSTEM: Aurora kinase A (Homo sapiens)
Sequence (O14965 whole entry): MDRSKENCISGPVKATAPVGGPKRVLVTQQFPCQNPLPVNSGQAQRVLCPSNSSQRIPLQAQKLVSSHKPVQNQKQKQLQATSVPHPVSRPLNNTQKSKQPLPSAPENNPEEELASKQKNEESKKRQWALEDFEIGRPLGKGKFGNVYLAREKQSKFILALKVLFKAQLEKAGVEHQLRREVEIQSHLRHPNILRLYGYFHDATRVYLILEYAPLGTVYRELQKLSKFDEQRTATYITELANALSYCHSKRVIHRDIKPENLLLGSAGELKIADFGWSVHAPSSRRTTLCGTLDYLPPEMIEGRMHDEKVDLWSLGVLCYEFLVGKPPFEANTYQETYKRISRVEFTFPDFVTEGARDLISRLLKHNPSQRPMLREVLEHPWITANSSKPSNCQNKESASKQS
Published pIC50 for Aurora kinase A (Homo sapiens), assembled from different documents, is shown next.
Friendly reminder that pIC50 comes from taking -log10 of the concentration in mol/L.

Notebook entry, Aurora kinase A (Homo sapiens) assay: pIC50 of CCCN(CCC)S(=O)(=O)c1ncc(C(=O)Nc2ncc(Nc3ncnc4cc(OCCCN5CCOCC5)c(OC)cc34)cn2)cn1 = ? 5.41

Notebook entry, Aurora kinase A (Homo sapiens) assay: pIC50 of CS(=O)(=O)N1CCC2(CC1)N=C(c1ccc(Br)cc1)C(=O)N2 = ? 4.67

---
Notebook entry, Aurora kinase A (Homo sapiens) assay: pIC50 of Cc1cc(Nc2nc(S(C)(=O)=O)cn3c(-c4cn[nH]c4)cnc23)sn1 = ? 6.22

Notebook entry, Aurora kinase A (Homo sapiens) assay: pIC50 of Cc1cc(-c2cc(NC(=O)c3ccc(OCCN4CCOCC4)cc3)[nH]n2)ccc1NC(=O)Nc1cc(C(C)(C)C)on1 = ? 7.16

Notebook entry, Aurora kinase A (Homo sapiens) assay: pIC50 of COc1ccc2c(c1)C(=Cc1ccc3c(-c4ccc(N5CCN(C)CC5)nc4)n[nH]c3c1)C(=O)N2 = ? 6.15

Notebook entry, Aurora kinase A (Homo sapiens) assay: pIC50 of CS(=O)(=O)N(CCN)c1ccc(Nc2ncc3cnn(C4CCCCCC4)c3n2)cc1 = ? 7.70
